- TARGET_OR_TEST_SYSTEM: HLA-DR DRB4*0101 (human)
- EXPERIMENT_SUMMARY: competition vs 125I-labeled peptide, purified HLA
pIC50: −log10 of the molar value.
# binarize pIC50: threshold 7 inclusive, high side Fulfilled, low side Not fulfilled

ILSIYSTVASSLALAI (modifications not checked) [Flu.HA.532]; Not fulfilled
EALMEWLKTRPILSP (modifications not checked) [Flu.M1.43]; Not fulfilled
VSLVKSDQICIGYHA (modifications not checked) [Flu.HA.11]; Fulfilled

Prompt: For this binder, is measured pIC50 7 or higher? MEWLKTRPILSPLTK (modifications not checked) [Flu.M1.46]
Completion: Not fulfilled

Prompt: # bool: pIC50 of TRPILSPLTKGILGF (modifications not checked) [Flu.M1.51] >= 7
Completion: Not fulfilled

Data origin, for the record: patent US20080032921A1
